SUBJECT_OF_TEST: T1, human TGFβ3 (human, UniProt P10600 301-412)
T1 sequence: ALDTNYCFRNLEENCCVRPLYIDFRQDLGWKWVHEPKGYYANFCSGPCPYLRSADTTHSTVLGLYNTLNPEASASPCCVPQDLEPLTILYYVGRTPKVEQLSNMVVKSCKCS
EXPERIMENTAL_DETAILS: Biacore off-rate vs wt GC1008, 50 nM
Measured kd var/kd wt by item
Give your answer as a number; write no unit.

BINDER	kd var/kd wt
N32M (antibody, V domains shown, GC1008 IgG4 variant) VH: QVQLVQSGAEVKKPGSSVKVSCKASGYTFSSMVISWVRQAPGQGLEWMGGVIPIVDIANYAQRFKGRVTITADESTSTTYMELSSLRSEDTAVYYCASTLGLVLDAMDYWGQGTLVTVSS VL: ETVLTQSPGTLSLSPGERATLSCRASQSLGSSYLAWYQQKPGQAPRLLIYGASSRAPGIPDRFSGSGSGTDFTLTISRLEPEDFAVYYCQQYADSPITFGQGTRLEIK	1.2
I54Y (antibody, V domains shown, GC1008 IgG4 variant) VH: QVQLVQSGAEVKKPGSSVKVSCKASGYTFSSNVISWVRQAPGQGLEWMGGVIPYVDIANYAQRFKGRVTITADESTSTTYMELSSLRSEDTAVYYCASTLGLVLDAMDYWGQGTLVTVSS VL: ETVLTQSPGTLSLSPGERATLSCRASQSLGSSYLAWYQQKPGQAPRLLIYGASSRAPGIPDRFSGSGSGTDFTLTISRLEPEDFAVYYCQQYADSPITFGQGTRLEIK	1.5
S31T (antibody, V domains shown, GC1008 IgG4 variant) VH: QVQLVQSGAEVKKPGSSVKVSCKASGYTFSTNVISWVRQAPGQGLEWMGGVIPIVDIANYAQRFKGRVTITADESTSTTYMELSSLRSEDTAVYYCASTLGLVLDAMDYWGQGTLVTVSS VL: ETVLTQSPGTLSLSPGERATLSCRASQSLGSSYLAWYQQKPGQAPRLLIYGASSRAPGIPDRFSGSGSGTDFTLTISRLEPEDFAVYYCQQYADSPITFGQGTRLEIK	1.5
Y27G (antibody, V domains shown, GC1008 IgG4 variant) VH: QVQLVQSGAEVKKPGSSVKVSCKASGGTFSSNVISWVRQAPGQGLEWMGGVIPIVDIANYAQRFKGRVTITADESTSTTYMELSSLRSEDTAVYYCASTLGLVLDAMDYWGQGTLVTVSS VL: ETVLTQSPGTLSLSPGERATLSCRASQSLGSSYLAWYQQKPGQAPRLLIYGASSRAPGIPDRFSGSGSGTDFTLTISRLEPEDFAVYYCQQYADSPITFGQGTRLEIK	1.3

Okay, now this binder:
Incoming: // lookup kd var/kd wt for S31L (antibody, V domains shown, GC1008 IgG4 variant) VH: QVQLVQSGAEVKKPGSSVKVSCKASGYTFSLNVISWVRQAPGQGLEWMGGVIPIVDIANYAQRFKGRVTITADESTSTTYMELSSLRSEDTAVYYCASTLGLVLDAMDYWGQGTLVTVSS VL: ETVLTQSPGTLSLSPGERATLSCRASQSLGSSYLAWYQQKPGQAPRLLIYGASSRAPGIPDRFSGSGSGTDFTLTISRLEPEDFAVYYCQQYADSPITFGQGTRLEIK
Outgoing: 1.5

Numbers sourced from patent US20170342144A1.
